experiment: protein stability index of a GFP-peptide fusion (GPS, HEK-293T) (PSI 1-6); higher = more stable; conditions: treatment: DMSO; c terminus: a fixed tail appended;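 note: 24-mer peptide tiles fused after GFP, lentivirally expressed, FACS-sorted into six equal bins by GFP/DsRed ratio, decoded by Illumina sequencing, PSI is the read-weighted mean bin number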
Value type: protein stability index
Returns: the value as a bare number; no unit string appended.

{"Seq text": "RSQSSIVPEEEQAANKGEEKKDDE [SMARCE1]", "protein stability index": 5.63}
{"Seq text": "REDQLDTVLAVLEDSSRDIREALH [INTS4]", "protein stability index": 4.21}

Shift focus to the following entry.
Entry under test: IKDKEAPLHVAQTRLYLRSHRPNM [TEKT4] . Its protein stability index was 3.23

====

assay: protein stability index of a GFP-peptide fusion (GPS, HEK-293T) (PSI 1-6); higher = more stable; settings: treatment: DMSO; c terminus: a fixed tail appended
Label Fulfilled when protein stability index is at or above 3; otherwise label Not fulfilled.

{"Seq text": "FPKDTLMNLHVYISEHEHFTDFNA [CLPTM1]", "Label value": "Not fulfilled"}
{"Seq text": "TASGDCYTFGSNQHGQLGTNTRRG [NEK8]", "Label value": "Fulfilled"}
{"Seq text": "HTQVLPDVRLLPRRLPLAFRDATS [DYRK1B]", "Label value": "Not fulfilled"}
{"Seq text": "CTEGPIDLVFVIDGSKSLGEENFE [MATN2]", "Label value": "Not fulfilled"}
{"Seq text": "AELLIFSVPIVYEKYKTQIDHYVG [RTN3]", "Label value": "Not fulfilled"}

Switching to the query record.
**Query** Does the sequence AASSAKMGLVETKLAIIPGGGGTQ [AUH] have recorded protein stability index that is 3 or more?
**Result** Fulfilled

====

Below, each entry is listed alongside its reported protein stability index.
experiment: protein stability index of a GFP-peptide fusion (GPS, HEK-293T) (PSI 1-6); higher = more stable; details: treatment: DMSO; c terminus: a fixed tail appended
Returns: the value as a bare number; no unit string appended.

Answered cases to consult:
{"Seq text": "MVVIHKEIPTGKKDHECSECGKTF [ZNF232]", "Reported result": 3.07}
{"Seq text": "AKKFMWRDSFMRHRGHCERRHRLG [ZBTB22]", "Reported result": 2.94}

Shift focus to the following entry.
Entry under test: SAVVGDVLVLTKPLGTQVAVNAHQ [SEPHS2] . Its protein stability index was 2.95

====

experiment: protein stability index of a GFP-peptide fusion (GPS, HEK-293T) (PSI 1-6); higher = more stable; conditions: treatment: MLN4924 1 uM, 8 h; c terminus: a fixed tail appended
Label MET when protein stability index is at or above 3; otherwise label NOT MET.

Observe how each entry below is paired with its result.
{"Seq text": "QSSGKVMYFSSLFPYVVLACFLVR [SLC6A17]", "Label value": "NOT MET"}
{"Seq text": "EPVAAGSGIPEVKCYLNGVKVPGI [CLCN6]", "Label value": "MET"}
{"Seq text": "DTISTIKSVAWEGGACPAFLPSLR [NCF4]", "Label value": "NOT MET"}
{"Seq text": "VAQTSLEEFNVLEMEVMRRQLYAV [FATE1]", "Label value": "NOT MET"}
{"Seq text": "LNLGSGTGYLSSMVGLILGPFGVN [PCMTD2]", "Label value": "NOT MET"}
{"Seq text": "AYTQTQFHNLRNTLDGYGIHPKSI [NFE2L1]", "Label value": "NOT MET"}
{"Seq text": "TSGVAAVQDWYHFHYVDILALLPA [SCNN1D]", "Label value": "NOT MET"}
{"Seq text": "LAQTRAEGQRQAQEYEALLNIKVK [KRT18]", "Label value": "MET"}
{"Seq text": "HVKKLQQKVATLEKRNRQLRERVK [CCDC3]", "Label value": "MET"}
{"Seq text": "YMVQDQHECILPFVQVKGNFARLQ [M1AP]", "Label value": "NOT MET"}

**Query** Does the sequence LKRSIPQVSPVRRAPSRRHGVRAK [CPN1] have recorded protein stability index that is 3 or more?
**Result** MET

**Query** Does the sequence ASDPLLSSVSPAVSKASSRRSSFS [TFE3] have recorded protein stability index that is 3 or more?
**Result** MET

**Query** Does the sequence PVDPDSQADTVHSNPELDVLLLGS [DNAAF3] have recorded protein stability index that is 3 or more?
**Result** MET

**Query** Does the sequence TASGDCYTFGSNQHGQLGTNTRRG [NEK8] have recorded protein stability index that is 3 or more?
**Result** MET

**Query** Does the sequence HVIHIIDFGLAKEYIDPETKKHIP [CSNK1G1] have recorded protein stability index that is 3 or more?
**Result** NOT MET

**Query** Does the sequence PEAEENKQIIRKHAQTFVALCATD [CCND1] have recorded protein stability index that is 3 or more?
**Result** MET

**Query** Does the sequence GSESYKSSAGSAEQTAPGDSTGYM [EHMT1] have recorded protein stability index that is 3 or more?
**Result** MET

**Query** Does the sequence ANLPVPTIAAIDGLALGGGLELAL [AUH] have recorded protein stability index that is 3 or more?
**Result** NOT MET

**Query** Does the sequence SLLPAQVAACAQTVVSLAAAGQPT [CEBPD] have recorded protein stability index that is 3 or more?
**Result** NOT MET

**Query** Does the sequence PGSFWGLCQVAQEALASAGASCCG [VENTX] have recorded protein stability index that is 3 or more?
**Result** NOT MET

**Query** Does the sequence HFTAMVWKNTKKMGVGKASASDGS [GLIPR2] have recorded protein stability index that is 3 or more?
**Result** MET
